Hey, just so you know, these numbers are from ChEMBL document CHEMBL4351028.

system: NCI-H460; test: Cytotoxicity against human NCI-H460 cells assessed as concentration that causes inhibition of cell viability by <=20% incubated for 24 hrs by MTT assay; assay type: cell-based; details: nci-h460, 24 h
Measured Parameter: Activity
Value and unit, in that order.

Solved entries:
{"Cpd Smiles": "COc1ccc(C(=O)c2ccc3[nH]cc(C(=O)c4ccc(OC)cc4OC)c3c2OC)c(OC)c1", "Activity": "25 µM"}
{"Cpd Smiles": "COc1ccc(C(=O)c2ccc3[nH]cc(C(=O)c4ccc(OC)cc4)c3c2OC)cc1", "Activity": "25 µM"}
{"Cpd Smiles": "O=C(c1ccc(O)cc1)c1c[nH]c2ccc(O)cc12", "Activity": "25 µM"}

Input line: Report Activity for COc1ccc(C(=O)c2c(OC)ccc3cc(OC)ccc23)c(OC)c1 tested on NCI-H460.
Output line: 10 µM

Input line: # returns recorded Activity (system: NCI-H460) for O=C(c1ccc(O)cc1O)c1c[nH]c2ccc(O)cc12
Output line: 25 µM
